# System: SF-268 CNS
# METHOD_SUMMARY: NCI tumour cell line growth inhibition, 48 h
Below is a list of entries, each paired with its recorded TGI value.
Give the number; µM is assumed, so skip it.

Data request: Would you kindly share the measured TGI for Cc1ccc(N2C(=O)C3c4[nH]c5ccc(C)cc5c4C4CCC(C(C)(C)C)CC4C3C2=O)cc1 (stereo not given) ?
Data returned: 33.2

Data request: Consider the compound shown here: `N#Cc1c(Cl)cc(C#N)n2c1nc1ccccc12` What is its recorded TGI?
Data returned: 13.6

====

# System: OVCAR-8 ovarian
# METHOD_SUMMARY: NCI tumour cell line growth inhibition, 48 h
# TGI listing for each entry below

In [3]: df
Out[3]:
                                   molecule  meas_value
0  COc1ccc(N2C(=O)C(Cl)C2c2cc3cc(Br)ccc3nc2Cl)cc1 (stereo unspecified)     > 25 µM
1  COC(=O)[C@@H]1C[C@@H](O)CN1C(=O)c1ccc([N+](=O)[O-])cc1[N+](=O)[O-]    > 100 µM
2  c1ccc(C2=NOC3C4CCC(C4)C23)cc1 (stereo unspecified)    > 100 µM
3   O=C(c1cscc1CCc1ccccc1)c1cscc1CCc1ccccc1    > 100 µM
4  O=S(=O)(NC1=NCCN1C(=S)SN1CCn2c1nsc2=S)c1ccc(Oc2ccccc2)cc1    > 100 µM

Data request: Which TGI value belongs to `CCOC(=O)[C@@H]1[C@@H](c2ccccc2)N(C)O[C@@]1(c1ccccc1)C(F)(F)F` ?
Data returned: > 100 µM

Data request: I have this molecule here, `Cc1ccc(/C=N/NC(=O)c2ccccc2Oc2ccccc2)o1` , and I need its recorded TGI.
Data returned: > 100 µM

Data request: Sample `CCCCC(=O)/C=c1/cc(C)[nH]c2cccc3cnn1c32` — what was its TGI?
Data returned: > 100 µM

Data request: Would you kindly share the measured TGI for `O=C(O)CCC(c1ccccc1)(c1ccccc1)c1ccccc1` ?
Data returned: > 100 µM

Data request: What value of measured TGI is listed for `C/C(=C\COP(=O)(O)OP(=O)(O)O)CCCCCCOCc1ccccc1` ?
Data returned: > 100 µM

Data request: Name the reported TGI value associated with the molecule O=C(OCc1ccccc1)C(Cc1ccc(OCc2ccccc2)cn1)NC(=O)C(F)(F)F (stereo unspecified)
Data returned: > 100 µM
